Measured values drawn from patent US20150225369A1 for this set.

Please provide measured pIC50 for the entries that follow.
Biological target: HEK293 transfected with human DDR2 (Homo sapiens, UniProt Q16832)
Construct: expressed in transfected cells; host or cells: HEK293 (PLT460F_(DDR2)-P7-1)
Experiment: Phospho-DDR2 cellular assay (collagen II induced DDR2 phosphorylation, ELISA)
Format: cell-based
Conditions: cellular phospho-DDR2; read-out: IC50 [p-DDR2]
Numbers only, as −log10 of the molar value.

Examples with their reported pIC50 follow.
CNCCOc1ccc(C)cc1NC(=O)NCc1ccc(Oc2ccnc(C(=O)NC)c2)cc1 :: 6.71
CNC(=O)c1cc(Oc2ccc(CNC(=O)Nc3cccnc3Cl)cc2)ccn1 :: 4.96
CNC(=O)c1cc(Oc2ccc(CNC(=O)Nc3cc(Cl)c(C)cc3OCCN(C)C)cc2)ccn1 :: 7.55

State recorded pIC50 for all listed compounds.
1. CNC(=O)c1cc(Oc2ccc(CNC(=O)Nc3cc(C)c(Cl)cc3NC(C)=O)cc2C)ccn1
2. CNC(=O)c1cc(Oc2ccc(CNC(=O)Nc3cc(C)c(Cl)cc3-n3cccc3)cc2)ccn1
3. CNC(=O)c1cc(Oc2ccc(CNC(=O)Nc3ccc(C)cn3)cc2)ccn1
4. CNC(=O)c1cc(Oc2ccc(CNC(=O)Nc3cc(C(F)(F)F)ccc3CN3CCNCC3=O)cc2)ccn1
5. CNC(=O)c1cc(Oc2ccc(CNC(=O)Nc3cc(C(F)(F)F)c(Cl)cc3OCCN3CCNCC3)cc2)ccn1

[A]
1: 6.48; 2: 6.94; 3: 5.82; 4: 6.07; 5: 7.20

* * *

Please provide measured IC50 for the entries that follow.
Target: His-tagged human recombinant DDR-2 kinase domain (His-TEV-DDR2 467-855 aa) (Homo sapiens, UniProt Q16832)
Construct: His-TEV-DDR2 467-855 aa
Sequence (Q16832 467-855): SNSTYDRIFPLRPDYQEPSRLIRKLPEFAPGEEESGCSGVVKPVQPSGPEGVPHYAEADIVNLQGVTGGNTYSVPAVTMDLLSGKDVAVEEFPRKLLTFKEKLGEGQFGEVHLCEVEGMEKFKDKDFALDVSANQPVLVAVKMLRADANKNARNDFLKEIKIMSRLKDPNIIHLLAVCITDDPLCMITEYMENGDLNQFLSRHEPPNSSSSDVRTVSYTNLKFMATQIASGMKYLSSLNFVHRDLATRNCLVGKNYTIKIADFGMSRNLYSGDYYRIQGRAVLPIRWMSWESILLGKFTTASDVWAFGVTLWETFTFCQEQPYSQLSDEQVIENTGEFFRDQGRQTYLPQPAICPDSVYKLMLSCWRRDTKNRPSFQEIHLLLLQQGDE
Assay: Autophosphorylation assay for biochemical activity testing of DDR2 (HTRF)
Details: biochemical DDR2 autophosphorylation
Give bare numbers, in nM.

CCN(CC)CCOc1cc(Cl)c(C)cc1NC(=O)NCc1ccc(Oc2ccnc(C(=O)NC)c2)c(C)c1 :: 390

State recorded IC50 for all listed molecules.
1. Cc1ccc(Cl)cc1NC(=O)NCc1ccc(Oc2ccncc2)cc1
2. CC(C)(C)c1ccc(NC(=O)NCc2ccc(Oc3ccncc3)cc2)cc1
3. CNC(=O)c1cc(Oc2ccc(CNC(=O)Nc3cc(C(F)(F)F)ccc3OC3CCNCC3)cc2)ccn1
4. CNC(=O)c1cc(Oc2ccc(CNC(=O)Nc3cc(Cl)ccc3OC)cc2)ccn1
5. CNCCOc1ccc(C)cc1NC(=O)NCc1ccc(Oc2ccnc(C(=O)NC)c2)cc1
6. O=C(NCc1ccc(Oc2ccncc2)cc1)Nc1cccc(Br)c1
7. CNC(=O)c1cc(Oc2ccc(CNC(=O)Nc3ccccc3OCCCN(C)C)cc2)ccn1

[A]
1: 1700; 2: 16000; 3: 20; 4: 30; 5: 310; 6: 56; 7: 1200

* * *

Biological target: His-tagged human recombinant DDR-2 kinase domain (His-TEV-DDR2 467-855 aa) (Homo sapiens, UniProt Q16832)
Construct: His-TEV-DDR2 467-855 aa
Experiment: Autophosphorylation assay for biochemical activity testing of DDR2 (HTRF)
Details: 4 nM DDR2 kinase domain, 150 μM ATP, 150 min at 22° C.
Please provide measured log10(IC50) for the entries that follow.
Each number you see is log10 of IC50, and the unit inside the log is µM.

State recorded log10(IC50) for all listed molecules.
1. CNC(=O)c1cc(Oc2ccc(CNC(=O)Nc3cc(C)cnc3Cl)cc2C)ccn1
2. COc1nc2ccccc2cc1NC(=O)NCc1ccc(Oc2ccnc(C)c2)c(C)c1
3. CNC(=O)c1cc(Oc2ccc(CNC(=O)Nc3cc(Cl)cnc3Cl)cc2)ccn1
4. CNC(=O)c1cc(Oc2ccc(CNC(=O)Nc3ccc(C)cn3)cc2)ccn1
5. COc1ccc(C(F)(F)F)cc1NC(=O)Nc1ccc(Cc2nc3cc[nH]c(=O)c3[nH]2)cc1

[A]
-0.39
0.23
-0.89
0.30
-1.21

* * *

Target: His-tagged human recombinant DDR-2 kinase domain (His-TEV-DDR2 467-855 aa) (Homo sapiens, UniProt Q16832)
Construct: His-TEV-DDR2 467-855 aa
Sequence (Q16832 467-855): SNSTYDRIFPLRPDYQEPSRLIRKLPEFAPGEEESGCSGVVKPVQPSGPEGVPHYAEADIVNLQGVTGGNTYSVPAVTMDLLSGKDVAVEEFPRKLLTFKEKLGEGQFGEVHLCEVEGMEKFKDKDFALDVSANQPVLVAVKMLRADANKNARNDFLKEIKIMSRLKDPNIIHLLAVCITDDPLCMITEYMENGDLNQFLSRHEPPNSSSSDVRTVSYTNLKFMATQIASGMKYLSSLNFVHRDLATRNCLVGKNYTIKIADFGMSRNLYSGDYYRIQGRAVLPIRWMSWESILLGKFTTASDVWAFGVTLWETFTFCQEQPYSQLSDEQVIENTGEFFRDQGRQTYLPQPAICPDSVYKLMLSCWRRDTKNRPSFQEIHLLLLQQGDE
Assay: Autophosphorylation assay for biochemical activity testing of DDR2 (HTRF)
Settings: biochemical DDR2 autophosphorylation
Entries get a class label from measured IC50. See ranges: range A = under 100 nM, range B = from 100 nM up to 700 nM, range C = 700 nM and over

CNC(=O)c1cc(Oc2ccc(CNC(=O)Nc3cc(C(F)(F)F)c(Cl)cc3OC)cc2)ccn1 :: range B
CCOc1ccc(C(F)(F)F)cc1NC(=O)NCc1ccc(Oc2ccnc(C(=O)NC)c2)c(C)c1 :: range A
CNC(=O)c1cc(Oc2ccc(CNC(=O)Nc3cccnc3)cc2)ccn1 :: range C
CNC(=O)c1cc(Oc2ccc(CNC(=O)Nc3cc(C(F)(F)F)ccc3OCC(=O)OC)cc2)ccn1 :: range A
CNC(=O)c1cc(Oc2ccc(CNC(=O)Nc3cc(C)c(Cl)cc3OCCN3CCCC3)cc2C)ccn1 :: range B

[Q] Assign a bin to CNC(=O)c1cc(Oc2ccc(CNC(=O)Nc3cc(C(F)(F)F)ccc3OCC(C)(C)N)cc2)ccn1
[A] range B

[Q] Assign a bin to CCN(CC)CCOc1cc(Cl)c(C)cc1NC(=O)NCc1ccc(Oc2ccnc(C(=O)NC)c2)cc1
[A] range B

* * *

Target: HEK293 transfected with human DDR2 (Homo sapiens, UniProt Q16832)
Construct: expressed in transfected cells; host or cells: HEK293 (PLT460F_(DDR2)-P7-1)
Assay: Phospho-DDR2 cellular assay (collagen II induced DDR2 phosphorylation, ELISA)
Assay type: cell-based
Conditions: HEK293 transfected with human DDR2, 50 μg/ml chicken collagen II, 16 h; read-out: IC50 [p-DDR2]
PROPERTY_MEASURED: pIC50
Give bare numbers, as −log10 of the molar value.

Examples with their reported pIC50 follow.
Cc1cc(Oc2ccc(CNC(=O)Nc3cc(C(F)(F)F)cnc3Cl)cc2C)ccn1 [compound 30] :: 7.22
Cc1cc(Oc2ccc(CNC(=O)Nc3cc(C(F)(F)F)cn(C)c3=O)cc2C)ccn1 [compound 6] :: 7.52
Cn1cc(C(F)(F)F)cc(NC(=O)NCc2ccc(Oc3ccnc4ccc(C(F)(F)F)cc34)cc2)c1=O [compound 2] :: 5.25

State recorded pIC50 for all listed compounds.
1. COc1ncc(Cl)cc1NC(=O)NCc1ccc(Oc2ccnc(C)c2)c(C)c1 [compound 28]
2. CNC(=O)c1cc(Oc2ccc(CNC(=O)Nc3cc(C)cnc3OC)cc2)ccn1 [compound 19]
3. CNC(=O)c1cc(Oc2ccc(CNC(=O)Nc3cc(C(F)(F)F)cn(C)c3=O)cc2C)ccn1 [compound 7]
4. CNC(=O)c1cc(Oc2ccc(CNC(=O)Nc3cc(C)cnc3OC)cc2C)ccn1 [compound 20]

[A]
[7.77, 7.62, 7.92, 7.39]

State recorded pIC50 for all listed compounds.
1. COc1ncc(C)cc1NC(=O)NCc1ccc(Oc2ccncc2)cc1 [compound 18]
2. Cn1cc(C(F)(F)F)cc(NC(=O)NCc2ccc(Oc3ccnc4c3CNC(=O)N4)cc2)c1=O [compound 5]

[A]
7.52
8.23

State recorded pIC50 for all listed compounds.
1. COc1ccc(C(F)(F)F)cc1NC(=O)Nc1ccc(Cc2nc3cc[nH]c(=O)c3[nH]2)cc1 [compound 3]
2. CNC(=O)c1cc(Oc2ccc(CNC(=O)Nc3cc(C(F)(F)F)cnc3Cl)cc2C)ccn1 [compound 26]
3. CNC(=O)c1cc(Oc2ccc(CNC(=O)Nc3cc(C)cnc3Cl)cc2C)ccn1 [compound 25]
4. CNC(=O)c1cc(Oc2ccc(COC(=O)Nc3ccc(Cl)c(C(F)(F)F)c3)cc2)ccn1 [compound 6]
5. COc1ncc(Cl)cc1NC(=O)NCc1ccc(Oc2ccnc(C)c2)cc1 [compound 27]
6. CNC(=O)c1cc(Oc2ccc(CNC(=O)Nc3cc(Cl)cnc3OC)cc2)ccn1 [compound 21]
7. CNC(=O)c1cc(Oc2ccc(CNC(=O)Nc3cc(Cl)cnc3OC)cc2C)ccn1 [compound 23]

[A]
[6.96, 7.37, 7.06, 6.57, 7.38, 7.85, 8.17]

[Q] Notebook entry, HEK293 transfected with human DDR2 (Homo sapiens, UniProt Q16832) assay: pIC50 of CNC(=O)c1cc(Oc2ccc(CNC(=O)Nc3cc(C(F)(F)F)cn(C)c3=O)cc2)ccn1 [compound 8] = ?
[A] 7.55
